# Procedure Text: Metabolic stability in rat liver microsomes assessed as metabolism rate
# Type: ADME, microsome
# Lookup of reported Drug metabolism keyed by entry
Measured Property: Drug metabolism (nmol/min/mg)

> print(dat)
                               smiles.entry  measured.property  value.operator  reading
1  O=C1c2c(F)cc(C3CC3)cc2OCCN1c1cccc(-c2ccnc3[nH]c(-c4cnn(C5CCN(C6COC6)CC5)c4)cc23)c1CO    Drug metabolism               <     0.04
2  CN(C)C(=O)N1CC=C(c2cc3c(-c4cccc(N5CCOc6cc(C7CC7)cc(F)c6C5=O)c4CO)ccnc3[nH]2)CC1    Drug metabolism               =     0.05
3  CN1CCN(Cc2ccc(-c3cc4c(-c5cccc(N6CCOc7cc(C8CC8)cc(F)c7C6=O)c5CO)ccnc4[nH]3)nc2)CC1    Drug metabolism               =     0.15
4  CC(C)(O)CN1CC=C(c2cc3c(-c4cccc(N5CCOc6cc(C7CC7)cc(F)c6C5=O)c4CO)ccnc3[nH]2)CC1    Drug metabolism               =     0.09
5  CC1(O)CN(C(=O)N2CC=C(c3cc4c(-c5cccc(N6CCOc7cc(C8CC8)cc(F)c7C6=O)c5CO)ccnc4[nH]3)CC2)C1    Drug metabolism               =     0.04
6  N#CCC(=O)N1CC=C(c2cc3c(-c4cccc(N5CCOc6cc(C7CC7)cc(F)c6C5=O)c4CO)ccnc3[nH]2)CC1    Drug metabolism               <     0.04
7  O=C1c2c(F)cc(C3CC3)cc2OCCN1c1cccc(-c2ccnc3[nH]c(C4=CCN(C5COC5)CC4)cc23)c1CO    Drug metabolism               <     0.04
8  CS(=O)(=O)N1CC=C(c2cc3c(-c4cccc(N5CCOc6cc(C7CC7)cc(F)c6C5=O)c4CO)ccnc3[nH]2)CC1    Drug metabolism               =     0.05

* * *

# System: Tyrosine-protein kinase TXK (Homo sapiens, UniProt P42681)
# Sequence (P42681 whole entry): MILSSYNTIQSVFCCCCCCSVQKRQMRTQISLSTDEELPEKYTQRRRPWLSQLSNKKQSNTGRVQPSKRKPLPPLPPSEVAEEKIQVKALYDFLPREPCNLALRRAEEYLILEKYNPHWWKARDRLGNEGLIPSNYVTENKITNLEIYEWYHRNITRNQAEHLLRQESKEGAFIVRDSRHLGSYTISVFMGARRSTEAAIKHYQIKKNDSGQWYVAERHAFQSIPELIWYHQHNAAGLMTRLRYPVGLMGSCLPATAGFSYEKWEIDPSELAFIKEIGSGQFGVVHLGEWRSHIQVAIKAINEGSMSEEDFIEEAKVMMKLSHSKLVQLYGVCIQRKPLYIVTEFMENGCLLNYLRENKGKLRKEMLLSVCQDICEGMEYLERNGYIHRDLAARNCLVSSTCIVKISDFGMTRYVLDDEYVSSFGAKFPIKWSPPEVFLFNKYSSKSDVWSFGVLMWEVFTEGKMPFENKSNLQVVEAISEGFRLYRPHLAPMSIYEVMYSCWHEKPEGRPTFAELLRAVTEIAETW
pIC50: −log10 of the molar value.
Measured Property: pIC50

> print(dat)
                               smiles.entry                                    system  reading
1  O=C1c2c(F)cc(C3CC3)cc2OCCN1c1cccc(-c2ccnc3[nH]c(C4=CCN(C5COC5)CC4)cc23)c1CO  Tyrosine-protein kinase TXK (Homo sapiens, UniProt P42681)   < 5.00

* * *

# Procedure Text: Equilibrium aqueous solubility of the compound at pH 7.4
# Assay type: physicochemical
Measured Property: solubility thermodynamic (µM)

> print(dat)
                               smiles.entry         measured.property  value.operator  reading
1  CC(C)(O)CN1CC=C(c2cc3c(-c4cccc(N5CCOc6cc(C7CC7)cc(F)c6C5=O)c4CO)ccnc3[nH]2)CC1  solubility thermodynamic               <       20
2  CCN1CCN(Cc2ccc(-c3cc4c(-c5cccc(N6CCOc7cc(C8CC8)cc(F)c7C6=O)c5CO)ccnc4[nH]3)nc2)CC1  solubility thermodynamic               =       15
3  O=C1c2c(F)cc(C3CC3)cc2OCCN1c1cccc(-c2ccnc3[nH]c(C4=CCN(C5COC5)CC4)cc23)c1CO  solubility thermodynamic               =       31
4  O=C1c2c(F)cc(C3CC3)cc2OCCN1c1cccc(-c2ccnc3[nH]c(-c4cnn(C5CCN(C6COC6)CC5)c4)cc23)c1CO  solubility thermodynamic               <       20

* * *

Overview of recorded Cmax for various molecules
# Procedure Text: Cmax in mouse at 10 mg/kg, po
# Assay type: ADME, organism-based
# Parameters: dose 10 mg/kg, route oral
# Experimental Setup: in vivo
Measured Property: Cmax (µM)

> print(dat)
                               smiles.entry  measured.property  reading
1  O=C1c2c(F)cc(C3CC3)cc2OCCN1c1cccc(-c2ccnc3[nH]c(C4=CCN(C5COC5)CC4)cc23)c1CO               Cmax      7.6
2  CCN1CCN(Cc2ccc(-c3cc4c(-c5cccc(N6CCOc7cc(C8CC8)cc(F)c7C6=O)c5CO)ccnc4[nH]3)nc2)CC1               Cmax      2.3

* * *

Measured solubility thermodynamic by item
# Procedure Text: Equilibrium aqueous solubility of the compound at pH 2.1
# Assay type: physicochemical
Measured Property: solubility thermodynamic

> print(dat)
                               smiles.entry    reading
1  CCN1CCN(Cc2ccc(-c3cc4c(-c5cccc(N6CCOc7cc(C8CC8)cc(F)c7C6=O)c5CO)ccnc4[nH]3)nc2)CC1  > 2000 µM
2  O=C1c2c(F)cc(C3CC3)cc2OCCN1c1cccc(-c2ccnc3[nH]c(C4=CCN(C5COC5)CC4)cc23)c1CO  > 2000 µM

* * *

# Procedure Text: Metabolic stability in human liver microsomes assessed as metabolism rate
# Format: ADME, microsome
Measured Property: Drug metabolism (nmol/min/mg)

> print(dat)
                               smiles.entry  value.operator  reading
1  CCN1CCN(Cc2ccc(-c3cc4c(-c5cccc(N6CCOc7cc(C8CC8)cc(F)c7C6=O)c5CO)ccnc4[nH]3)nc2)CC1               <     0.04
2  N#CCC(=O)N1CC=C(c2cc3c(-c4cccc(N5CCOc6cc(C7CC7)cc(F)c6C5=O)c4CO)ccnc3[nH]2)CC1               =     0.07
3  O=C1c2c(F)cc(C3CC3)cc2OCCN1c1cccc(-c2ccnc3[nH]c(-c4cnn(C5CCN(C6COC6)CC5)c4)cc23)c1CO               =     0.05
4  CN1CCN(Cc2ccc(-c3cc4c(-c5cccc(N6CCOc7cc(C8CC8)cc(F)c7C6=O)c5CO)ccnc4[nH]3)nc2)CC1               <     0.04
5  CC(C)(O)CN1CC=C(c2cc3c(-c4cccc(N5CCOc6cc(C7CC7)cc(F)c6C5=O)c4CO)ccnc3[nH]2)CC1               =     0.04
6  CC1(O)CN(C(=O)N2CC=C(c3cc4c(-c5cccc(N6CCOc7cc(C8CC8)cc(F)c7C6=O)c5CO)ccnc4[nH]3)CC2)C1               <     0.04
7  CS(=O)(=O)N1CC=C(c2cc3c(-c4cccc(N5CCOc6cc(C7CC7)cc(F)c6C5=O)c4CO)ccnc3[nH]2)CC1               =     0.07
8  O=C1c2c(F)cc(C3CC3)cc2OCCN1c1cccc(-c2ccnc3[nH]c(C4=CCN(C5COC5)CC4)cc23)c1CO               <     0.04
9  CN(C)C(=O)N1CC=C(c2cc3c(-c4cccc(N5CCOc6cc(C7CC7)cc(F)c6C5=O)c4CO)ccnc3[nH]2)CC1               =     0.05

* * *

# System: UniProt:P51813
# Sequence (P51813 whole entry): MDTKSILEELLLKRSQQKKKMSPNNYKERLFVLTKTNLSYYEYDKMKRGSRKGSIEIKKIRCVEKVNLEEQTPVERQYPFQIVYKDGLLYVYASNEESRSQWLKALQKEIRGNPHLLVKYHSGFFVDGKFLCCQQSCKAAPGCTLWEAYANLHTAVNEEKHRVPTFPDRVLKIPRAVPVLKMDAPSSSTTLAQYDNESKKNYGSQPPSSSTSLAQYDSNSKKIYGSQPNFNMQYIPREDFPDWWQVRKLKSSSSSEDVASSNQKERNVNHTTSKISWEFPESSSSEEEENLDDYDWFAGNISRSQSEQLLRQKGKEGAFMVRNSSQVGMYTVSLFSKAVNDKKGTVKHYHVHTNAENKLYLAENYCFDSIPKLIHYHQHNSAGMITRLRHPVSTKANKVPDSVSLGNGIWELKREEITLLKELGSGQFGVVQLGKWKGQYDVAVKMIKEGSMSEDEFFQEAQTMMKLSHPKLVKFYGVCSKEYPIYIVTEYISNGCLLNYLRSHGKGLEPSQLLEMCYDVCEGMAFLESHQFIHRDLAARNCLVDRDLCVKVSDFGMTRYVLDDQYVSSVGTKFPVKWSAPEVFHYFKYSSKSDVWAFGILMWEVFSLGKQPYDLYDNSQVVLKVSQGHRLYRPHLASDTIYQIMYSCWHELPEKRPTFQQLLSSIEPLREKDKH
Measured Property: IC50 (µM)

> print(dat)
                               smiles.entry  reading
1  O=C1c2c(F)cc(C3CC3)cc2OCCN1c1cccc(-c2ccnc3[nH]c(C4=CCN(C5COC5)CC4)cc23)c1CO     4.68
